tested.on: PCSK9 (Homo sapiens (Human))
Sequence (Q8NBP7 153-692): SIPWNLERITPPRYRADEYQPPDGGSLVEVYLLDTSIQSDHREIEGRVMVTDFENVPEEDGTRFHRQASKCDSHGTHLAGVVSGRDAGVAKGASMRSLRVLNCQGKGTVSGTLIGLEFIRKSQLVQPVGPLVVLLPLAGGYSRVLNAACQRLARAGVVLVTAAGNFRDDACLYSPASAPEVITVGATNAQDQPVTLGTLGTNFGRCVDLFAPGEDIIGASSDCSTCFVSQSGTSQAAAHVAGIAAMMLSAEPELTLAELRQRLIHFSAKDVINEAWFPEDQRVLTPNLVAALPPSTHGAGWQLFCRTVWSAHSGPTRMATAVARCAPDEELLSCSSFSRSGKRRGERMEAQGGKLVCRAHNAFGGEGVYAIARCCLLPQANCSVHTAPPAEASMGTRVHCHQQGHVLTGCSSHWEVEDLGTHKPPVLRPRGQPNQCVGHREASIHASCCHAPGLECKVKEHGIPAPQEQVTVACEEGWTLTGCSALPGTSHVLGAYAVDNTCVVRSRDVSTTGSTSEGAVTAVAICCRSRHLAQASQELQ
method: PCSK9 Alexa FRET Plus assay (displacement of AlexaFluor647 tagged cyclic peptide Reagent B)
Assay type: binding
measurement.setup: Alexa FRET Plus, 0.5 nM PCSK9, 960 nM AF cyclic peptide Reagent B; read-out: IC50
Procedure: A solution containing 1 nM biotinylated PCSK9+2.5 nM Lance Streptavidin Europium (Strep-Eu) was made in 50 mM HEPES pH 7.4, 0.15 M NaCl, 5 mM CaCl2), 0.01% BSA, and 0.01% Surfactant P20. […] The reaction was incubated at room temperature for at least two hours prior to fluorescence measurements using an Envision Multilabel Reader. IC50 values were determined by fitting data to a sigmoidal dose-response curve using nonlinear regression. […]
pIC50: −log10 of the molar value. Starred links: 1 amine or outer side, 2 acyl side, 3 side chain; linkers in the order of their positions; H or OH if unused. Positions of bridges follow the written chain, without caps; N, C: chain ends. Non-standard residues stand in square brackets, D forms with d. Residues, ends and D or L forms follow the SMILES beside them. *: point of attachment. Trp(5-F) = N[C@@H](Cc1c[nH]c2ccc(F)cc12)C(=O)O; Pro(cis-4-F) = O=C(O)[C@@H]1C[C@H](F)CN1; AEF = NCCOc1ccc(C[C@H](N)C(=O)O)cc1; αMeP = C[C@@]1(C(=O)O)CCCN1; Orn = NCCC[C@H](N)C(=O)O; X2 = O=C(C[*:2])[*:1]; X28 = CC(C)(F)C(=O)*
This section presents compounds with their documented pIC50 values.

>>> result("COc1ccc(C[C@@H]2NC(=O)[C@H]([C@@H](C)O)NC(=O)[C@@H]3C[C@H](F)CN3C(=O)[C@H](Cc3c[nH]c4ccc(F)cc34)NC(=O)[C@H](Cc3c[nH]c4ccc(F)cc34)NC(=O)[C@@H](C)NC(=O)[C@H](CCCCN)NC(=O)[C@@H](NC(=O)C(C)(C)F)CC(=O)NCCOc3ccc(cc3)C[C@@H](C(N)=O)NC(=O)[C@]3(C)CCCN3C2=O)cc1 [Compound 112] (X28-DK[dA][Trp(5-F)][Trp(5-F)][Pro(cis-4-F)]TY(Me)[αMeP][AEF]-NH2; lactam 1-10)")
"6.30 to 7.00"

For the next question, use this compound.
Q. Consider the compound COc1ccc(C[C@@H]2NC(=O)[C@H]([C@@H](C)O)NC(=O)[C@@H]3C[C@H](F)CN3C(=O)[C@H](Cc3c[nH]c4ccc(F)cc34)NC(=O)[C@H](Cc3c[nH]c4ccc(F)cc34)NC(=O)[C@@H](C)NC(=O)[C@H](CCCCN)NC(=O)[C@@H](NC(C)=O)CCCNC(=O)COc3ccc(cc3)C[C@@H](C(N)=O)NC(=O)[C@]3(C)CCCN3C2=O)cc1 [Compound 091] (Ac-[Orn]K[dA][Trp(5-F)][Trp(5-F)][Pro(cis-4-F)]TY(Me)[αMeP]Y-NH2; linker 1-10 via X2) and give its measured pIC50.
A. 6.30 to 7.00

----------
tested.on: PCSK9 (Homo sapiens (Human))
method: PCSK9 Alexa FRET Standard assay (displacement of AlexaFluor647 tagged cyclic peptide Reagent A)
Format: binding
measurement.setup: PCSK9 Alexa FRET Standard assay, 0.5 nM PCSK9, 20 nM AF cyclic peptide Reagent A; read-out: IC50
pIC50: −log10 of the molar value. Starred links: 1 amine or outer side, 2 acyl side, 3 side chain; linkers in the order of their positions; H or OH if unused. Positions of bridges follow the written chain, without caps; N, C: chain ends. Non-standard residues stand in square brackets, D forms with d. Residues, ends and D or L forms follow the SMILES beside them. Trp(5-F) = N[C@@H](Cc1c[nH]c2ccc(F)cc12)C(=O)O; Phe(4-CH2NH2) = NCc1ccc(C[C@H](N)C(=O)O)cc1; X33 = CC(C)C(N[*:1])c1ncc(C(=O)[*:2])[nH]1; mXylylene(5-F) = Fc1cc(C[*:1])cc(C[*:2])c1; mXylylene = c1cc(C[*:1])cc(C[*:2])c1; Glutaryl = O=C(CCCC(=O)[*:2])[*:1]; X35 = COc1cc(C[*:1])cc(C[*:2])c1; αMeP = C[C@@]1(C(=O)O)CCCN1; Mpa = O=C(O)CCS
readout.name: pIC50

>>> result("C[C@H]1NC(=O)[C@H](CCCCN)NC(=O)CCSCc2cc(F)cc(c2)CSC[C@@H](C(N)=O)NC(=O)[C@]2(C)CCCN2C(=O)[C@H](Cc2ccc(O)cc2)NC(=O)[C@H]([C@@H](C)O)NC(=O)[C@@H]2CCCN2C(=O)[C@H](Cc2c[nH]c3ccc(F)cc23)NC(=O)[C@H](Cc2c[nH]c3ccc(F)cc23)NC1=O [Compound 042] ([Mpa]K[dA][Trp(5-F)][Trp(5-F)]PTY[αMeP]C-NH2; linker 1-10 via mXylylene(5-F))")
"4.92 to 6.00"
>>> result("COc1ccc(C[C@@H]2NC(=O)[C@H]([C@@H](C)O)NC(=O)[C@@H]3CCCN3C(=O)[C@H](Cc3c[nH]c4ccc(F)cc34)NC(=O)[C@H](Cc3c[nH]c4ccc(F)cc34)NC(=O)[C@@H](C)NC(=O)[C@H](CCCCN)NC(=O)CCSCc3cc(cc(OC)c3)CSC[C@@H](C(N)=O)NC(=O)[C@]3(C)CCCN3C2=O)cc1 [Compound 063] ([Mpa]K[dA][Trp(5-F)][Trp(5-F)]PTY(Me)[αMeP]C-NH2; linker 1-10 via X35)")
"4.30 to 4.68"
>>> result("CC[C@H](C)[C@@H]1NC(=O)[C@@H]2CCCN2C(=O)[C@H](Cc2c[nH]c3ccc(F)cc23)NC(=O)[C@H](Cc2c[nH]c3ccc(F)cc23)NC(=O)[C@@H](C)NC(=O)[C@H](CCCCN)NC(=O)CCSCc2cc(F)cc(c2)CSC[C@@H](C(N)=O)NC(=O)[C@]2(C)CCCN2C(=O)[C@H](Cc2ccc(OC)cc2)NC1=O [Compound 008] ([Mpa]K[dA][Trp(5-F)][Trp(5-F)]PIY(Me)[αMeP]C-NH2; linker 1-10 via mXylylene(5-F))")
"4.30 to 4.68"
>>> result("C[C@@H]1NC(=O)CCCC(=O)NCc2ccc(cc2)C[C@@H](C(N)=O)NC(=O)[C@]2(C)CCCN2C(=O)[C@H](Cc2ccc(O)cc2)NC(=O)[C@H](Cc2cnc[nH]2)NC(=O)[C@H](CC(=O)O)NC(=O)[C@H](Cc2c[nH]c3ccc(F)cc23)NC(=O)[C@H](Cc2c[nH]c3ccc(F)cc23)NC(=O)CNC1=O [Compound 366] (AG[Trp(5-F)][Trp(5-F)]DHY[αMeP][Phe(4-CH2NH2)]-NH2; linker N-9 via Glutaryl)")
"7.00 to 9.96"

For the next question, use this molecule.
Q. Recall the recorded pIC50 for CC(C)C1NC(=O)CCSCc2cccc(c2)CSC[C@@H](C(N)=O)NC(=O)[C@]2(C)CCCN2C(=O)[C@H](Cc2ccc(O)cc2)NC(=O)[C@H](Cc2c[nH]cn2)NC(=O)[C@H](CC(=O)O)NC(=O)[C@H](Cc2c[nH]c3ccc(F)cc23)NC(=O)[C@H](Cc2c[nH]c3ccc(F)cc23)NC(=O)c2cnc1[nH]2 (some centres unmarked) [Compound 449] ([Mpa][X33][Trp(5-F)][Trp(5-F)]DHY[αMeP]C-NH2; linker 1-9 via mXylylene) with PCSK9 (Homo sapiens (Human)) and state it.
A. 6.00 to 7.00
